Target: Bcl-2 protein (Recombinant Human Bcl-2 Protein) (Homo sapiens, UniProt P10415)
Construct: purchased Novus NBP2-34889
Sequence (P10415 whole entry): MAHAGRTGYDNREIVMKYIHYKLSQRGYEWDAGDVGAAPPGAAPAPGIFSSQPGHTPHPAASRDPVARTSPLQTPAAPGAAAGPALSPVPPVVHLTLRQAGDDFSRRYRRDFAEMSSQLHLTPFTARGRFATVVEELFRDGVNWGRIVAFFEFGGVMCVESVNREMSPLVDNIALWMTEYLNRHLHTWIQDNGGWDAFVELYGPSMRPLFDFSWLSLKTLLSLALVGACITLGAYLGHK
Experiment: Binding evaluation of mixture library compounds to Bcl-2 using AS-MS (affinity selection mass spectrometry)
Conditions: n = 2
value_kind: ASMS ratio (%)

CCOc1cncc(-c2csc(CN3CCN(c4ccc(C(=O)NS(=O)(=O)CCC(F)(F)F)nn4)CC3)c2)c1 | 0.0
CCOc1cncc(C#Cc2ccccc2C(=O)N2CCN(c3ccc(C(=O)NS(=O)(=O)c4ccc(NCCSc5ccccc5)c(C(F)(F)F)c4)cc3)CC2)c1 | 4.8
CCOc1cncc(-c2ccccc2CCC(=O)N2CCN(c3ccc(C(=O)NS(=O)(=O)c4ccc(NCCSc5ccccc5)c(C(F)(F)F)c4)nn3)CC2)c1 | 13.5

(A) CCOc1cncc(-c2cc(C(=O)N3CCN(c4ccc(C(=O)NS(=O)(=O)CCC(F)(F)F)cc4)CC3)cc(C(C)(C)C)c2)c1
(B) CCOc1cccc(-c2ccccc2CN2CCN(c3ccc(C(=O)NS(=O)(=O)CCC(F)(F)F)cc3)CC2)c1
Q: Consider entries A and B . Which has the numerically lower ASMS ratio (%)? Please identify the chosen entry by its label.
A: A
